target: FAP-expressing human WI-38 fibroblasts (Homo sapiens); construct: FAP-expressing human WI-38 fibroblasts (ECACC) were cultured in EMEM; host or cells: WI-38 human fibroblasts; experiment: Competitive FACS binding assay; conditions: pIC50 Category (FACS), competition with 3 nM Cy5-labeled compound, WI-38 fibroblasts, 4° C., 1 hour
Numbered stars: 1 amine (or outer) side, 2 acyl side, 3 side chain; on linkers, the order of the positions; unused ones are H or OH. Bridge positions count the residues as written; N and C are the ends. Peptide text beside a SMILES is read from it. mXylylene = c1cc(C[*:1])cc(C[*:2])c1
Give measured IC50 for each item. Keep answers brief.

Worked cases, IC50 given:
Enquiry: Fill in IC50 for record CSCC[C@H](NC(C)=O)C(=O)N[C@H]1CSCc2cccc(c2)CSC[C@@H](C(=O)N[C@@H](CC(=O)O)C(=O)N[C@@H](Cc2c[nH]cn2)C(=O)N[C@@H](Cc2ccccc2)C(=O)N[C@@H](CCCNC(=N)N)C(=O)N[C@@H](C)C(N)=O)NC(=O)[C@H](Cc2ccccc2)NC(=O)[C@H](CCC(=O)O)NC(=O)[C@H]([C@@H](C)O)NC(=O)[C@@H]2CCCN2C(=O)[C@@H]2CCCN2C1=O [3BP-3198] (Ac-MCPPTEFCDHFRA-NH2; linker 2-8 via mXylylene)
Return: < 0.01 µM

Enquiry: Fill in IC50 for record CCCCCC(=O)N[C@H]1CSCc2cccc(c2)CSC[C@@H](C(=O)N[C@@H](CCCCNC(=O)CN2CCN(CC(=O)O)CCN(CC(=O)O)CCN(CC(=O)O)CC2)CC(=O)O)NC(=O)[C@H](Cc2ccccc2)NC(=O)[C@H](CCC(N)=O)NC(=O)[C@H]([C@@H](C)O)NC(=O)[C@@H]2CCCN2C(=O)[C@@H]2CCCN2C1=O [3BP-3397]
Return: < 0.01 µM

Others:
Enquiry: Fill in IC50 for record CSCC[C@H](NC(C)=O)C(=O)N[C@H]1CSCc2cccc(c2)CSC[C@@H](C(=O)N[C@@H](CC(=O)O)C(=O)N[C@@H](Cc2c[nH]cn2)C(=O)N[C@@H](Cc2ccccc2)C(N)=O)NC(=O)[C@H](Cc2ccccc2)NC(=O)[C@H](CCC(=O)O)NC(=O)[C@H]([C@@H](C)O)NC(=O)[C@@H]2CCCN2C(=O)[C@@H]2CCCN2C1=O [3BP-3199] (Ac-MCPPTEFCDHF-NH2; linker 2-8 via mXylylene)
Return: 0.1 to 0.794 µM

---

Give measured pIC50 for each item. Keep answers brief.
target: FAP-expressing human WI-38 fibroblasts (Homo sapiens, UniProt Q12884); construct: FAP-expressing human WI-38 fibroblasts (ECACC) were cultured in EMEM; host or cells: WI-38 human fibroblasts; experiment: Competitive FACS binding assay; details: pIC50 Category (FACS), competition with 3 nM Cy5-labeled compound, WI-38 fibroblasts, 4° C., 1 hour
pIC50: −log10 of the molar value. Numbered stars: 1 amine (or outer) side, 2 acyl side, 3 side chain; on linkers, the order of the positions; unused ones are H or OH. Bridge positions count the residues as written; N and C are the ends. Square brackets hold non-standard residues; d marks the D form. Peptide text beside a SMILES is read from it. * marks the point of attachment. mXylylene = c1cc(C[*:1])cc(C[*:2])c1; 4Amb = NCc1ccc(C(=O)O)cc1; Hexanoyl = CCCCCC(=O)*; CO = O=C([*:1])[*:2]; NHPentyl = CCCCCN*

Enquiry: Fill in pIC50 for record CSCC[C@H](NC(C)=O)C(=O)N[C@H]1CSCc2cccc(c2)CSC[C@@H](C(=O)N[C@@H](CC(=O)O)C(=O)N[C@@H](Cc2c[nH]cn2)C(=O)N[C@@H](Cc2ccccc2)C(=O)N[C@@H](CCCNC(=N)N)C(=O)N[C@H](CC(=O)O)C(N)=O)NC(=O)[C@H](Cc2ccccc2)NC(=O)[C@H](CCC(=O)O)NC(=O)[C@H]([C@@H](C)O)NC(=O)[C@@H]2CCCN2C(=O)[C@@H]2CCCN2C1=O [3BP-3213] (Ac-MCPPTEFCDHFR[dD]-NH2; linker 2-8 via mXylylene)
Return: > 8.00

For each listed entry, give its pIC50.
1. CCCCCC(=O)N[C@H]1CSCc2cccc(c2)CSC[C@@H](C(=O)NCc2ccc(C(=O)N[C@@H](CCCNC(=N)N)C(N)=O)cc2)NC(=O)[C@H](Cc2ccccc2)NC(=O)[C@H](CCC(=O)O)NC(=O)[C@H]([C@@H](C)O)NC(=O)[C@@H]2CCCN2C(=O)[C@@H]2CCCN2C1=O [3BP-3303] (Hexanoyl-CPPTEFC[4Amb]R-NH2; linker 1-7 via mXylylene)
2. CCCCCNC(=O)N[C@H]1CSCc2cccc(c2)CSC[C@@H](C(=O)N[C@@H](CC(=O)O)C(N)=O)NC(=O)[C@H](Cc2ccccc2)NC(=O)[C@H](CCC(N)=O)NC(=O)[C@H]([C@@H](C)O)NC(=O)[C@@H]2CCCN2C(=O)[C@@H]2CCCN2C1=O [3BP-3425] ({NHPentyl-CO}-CPPTQFCD-NH2; linker 1-7 via mXylylene)

Return:
1: 7.10 to 8.00; 2: 7.10 to 8.00

---

Give measured Kd for each item. Keep answers brief.
target: Human recombinant FAP (Homo sapiens, UniProt Q12884); test: Surface plasmon resonance (Biacore) assay
Sequence (Q12884 whole entry): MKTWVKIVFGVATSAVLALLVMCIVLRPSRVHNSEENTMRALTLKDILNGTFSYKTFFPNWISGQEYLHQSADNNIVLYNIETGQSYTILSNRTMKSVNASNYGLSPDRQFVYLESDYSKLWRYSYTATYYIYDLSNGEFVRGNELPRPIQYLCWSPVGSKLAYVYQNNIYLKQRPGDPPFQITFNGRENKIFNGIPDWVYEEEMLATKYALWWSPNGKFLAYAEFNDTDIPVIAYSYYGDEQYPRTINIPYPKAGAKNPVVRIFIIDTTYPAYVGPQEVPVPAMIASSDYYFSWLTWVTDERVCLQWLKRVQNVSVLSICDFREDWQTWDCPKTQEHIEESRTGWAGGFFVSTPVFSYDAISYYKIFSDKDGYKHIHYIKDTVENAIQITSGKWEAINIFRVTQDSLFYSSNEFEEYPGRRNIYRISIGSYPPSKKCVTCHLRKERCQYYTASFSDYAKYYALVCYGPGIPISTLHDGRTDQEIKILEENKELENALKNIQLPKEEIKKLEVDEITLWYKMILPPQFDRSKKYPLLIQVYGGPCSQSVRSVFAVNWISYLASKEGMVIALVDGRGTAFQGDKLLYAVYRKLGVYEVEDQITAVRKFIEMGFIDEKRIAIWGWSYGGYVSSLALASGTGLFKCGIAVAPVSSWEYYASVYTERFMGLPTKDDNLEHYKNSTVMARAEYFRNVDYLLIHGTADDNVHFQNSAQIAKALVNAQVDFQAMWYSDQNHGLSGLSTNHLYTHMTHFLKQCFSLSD
Numbered stars: 1 amine (or outer) side, 2 acyl side, 3 side chain; on linkers, the order of the positions; unused ones are H or OH. Bridge positions count the residues as written; N and C are the ends. Square brackets hold non-standard residues; d marks the D form. Peptide text beside a SMILES is read from it. * marks the point of attachment. X24 = NCCNCC(CNCCN)C(=O)N[C@@H](CCC(=O)NC[C@H](O)[C@@H](O)[C@H](O)[C@H](O)CO)C(=O)NCCCOCCOCCOCCCN*; mXylylene = c1cc(C[*:1])cc(C[*:2])c1; Suc = O=C(CCC(=O)[*:2])[*:1]; Nle = CCCC[C@H](N)C(=O)O; Hexanoyl = CCCCCC(=O)*

Worked cases, Kd given:
Enquiry: Fill in Kd for record CCCC[C@H](NC(=O)CCC(=O)NCCCOCCOCCOCCCNC(=O)[C@H](CCC(=O)NC[C@H](O)[C@@H](O)[C@H](O)[C@H](O)CO)NC(=O)C(CNCCN)CNCCN)C(=O)N[C@H]1CSCc2cccc(c2)CSC[C@@H](C(=O)O)NC(=O)[C@H](Cc2ccccc2)NC(=O)[C@H](CCC(=O)O)NC(=O)[C@H]([C@@H](C)O)NC(=O)[C@@H]2CCCN2C(=O)[C@@H]2CCCN2C1=O [3BP-4246] ({X24-Suc}-[Nle]CPPTEFC-OH; linker 2-8 via mXylylene)
Return: < 10 nM

Enquiry: Fill in Kd for record CSCC[C@H](NC(C)=O)C(=O)N[C@H]1CSCc2cccc(c2)CSC[C@@H](C(=O)N[C@@H](CC(=O)O)C(=O)N[C@@H](Cc2c[nH]cn2)C(=O)N[C@@H](Cc2ccccc2)C(=O)N[C@@H](CCCNC(=N)N)C(=O)N[C@@H](CC(=O)O)C(N)=O)NC(=O)[C@H](Cc2ccccc2)NC(=O)[C@H](CCC(=O)O)NC(=O)[C@H]([C@@H](C)O)NC(=O)[C@@H]2CCCN2C(=O)[C@@H]2CCCN2C1=O [3BP-2975] (Ac-MCPPTEFCDHFRD-NH2; linker 2-8 via mXylylene)
Return: < 10 nM

Others:
Enquiry: Fill in Kd for record CCCCCC(=O)N[C@H]1CSCc2cccc(c2)CSC[C@@H](C(=O)N[C@@H](CC(=O)O)C(N)=O)NC(=O)[C@H](Cc2ccccc2)NC(=O)[C@H](CCC(N)=O)NC(=O)[C@H]([C@@H](C)O)NC(=O)[C@@H]2CCCN2C(=O)[C@@H]2CCCN2C1=O [3BP-3476] (Hexanoyl-CPPTQFCD-NH2; linker 1-7 via mXylylene)
Return: < 10 nM

---

Give measured Kd for each item. Keep answers brief.
biological target: Human recombinant FAP (Homo sapiens, UniProt Q12884); test: Surface plasmon resonance (Biacore) assay

Enquiry: Under Human recombinant FAP (Homo sapiens, UniProt Q12884): report Kd of CCCCCC(=O)N[C@H]1CSCc2cc(cc(CN3CCN(C(=O)C(CNCCN)CNCCN)CC3)c2)CSC[C@@H](C(=O)O)NC(=O)[C@H](Cc2ccccc2)NC(=O)[C@H](CCC(N)=O)NC(=O)[C@H]([C@@H](C)O)NC(=O)[C@@H]2CCCN2C(=O)[C@@H]2CCCN2C1=O [3BP-4168] .
Return: < 10 nM

Others:
Enquiry: Under Human recombinant FAP (Homo sapiens, UniProt Q12884): report Kd of CCCCCC(=O)N[C@H]1CSCc2cc(CSCCNC(=O)CN3CCN4CCN5CCN(CC3)CC(=O)[O][Ga]([O]C(=O)C4)[O]C(=O)C5)cc(c2)CSC[C@@H](C(=O)O)NC(=O)[C@H](Cc2ccccc2)NC(=O)[C@H](CCC(N)=O)NC(=O)[C@H]([C@@H](C)O)NC(=O)[C@@H]2CCCN2C(=O)[C@@H]2CCCN2C1 [3BP-3949] .
Return: < 10 nM
